Test system: UACC-257 melanoma
Experiment: NCI-60 one-dose screen, 48 h (100 = growth as untreated, 0 = no growth, -100 = all killed)
Conditions: 10 µM unless noted
Compounds without any hit were thinned out: in the full panel of roughly 83,000, 20% have a hit.
Endpoint: growth (%)
Answer in %, number only, no unit symbol.

Guide cases for growth, answers given:
Mol	Recorded result
O=C(N/N=C\c1ccc([N+](=O)[O-])cc1)c1ccc2nc(-c3ccc(Br)cc3)[nH]c2c1	18.2
CC(C)NC(=O)c1cc(-c2ccc(NC(=O)Nc3ccc(F)cc3)cc2)nc2cccnc12	102

Next:
// fetch UACC-257 melanoma growth for "COc1cc(C(=O)c2cc(C(C)=O)c3cccc(C)n23)cc(OC)c1OC"
56
